Listing of entries alongside the reported NAD/ADPR ratio.
Target: NAD(+) hydrolase SARM1 (Homo sapiens) (UniProt Q6SZW1)
Sequence (Q6SZW1 whole entry, looked up): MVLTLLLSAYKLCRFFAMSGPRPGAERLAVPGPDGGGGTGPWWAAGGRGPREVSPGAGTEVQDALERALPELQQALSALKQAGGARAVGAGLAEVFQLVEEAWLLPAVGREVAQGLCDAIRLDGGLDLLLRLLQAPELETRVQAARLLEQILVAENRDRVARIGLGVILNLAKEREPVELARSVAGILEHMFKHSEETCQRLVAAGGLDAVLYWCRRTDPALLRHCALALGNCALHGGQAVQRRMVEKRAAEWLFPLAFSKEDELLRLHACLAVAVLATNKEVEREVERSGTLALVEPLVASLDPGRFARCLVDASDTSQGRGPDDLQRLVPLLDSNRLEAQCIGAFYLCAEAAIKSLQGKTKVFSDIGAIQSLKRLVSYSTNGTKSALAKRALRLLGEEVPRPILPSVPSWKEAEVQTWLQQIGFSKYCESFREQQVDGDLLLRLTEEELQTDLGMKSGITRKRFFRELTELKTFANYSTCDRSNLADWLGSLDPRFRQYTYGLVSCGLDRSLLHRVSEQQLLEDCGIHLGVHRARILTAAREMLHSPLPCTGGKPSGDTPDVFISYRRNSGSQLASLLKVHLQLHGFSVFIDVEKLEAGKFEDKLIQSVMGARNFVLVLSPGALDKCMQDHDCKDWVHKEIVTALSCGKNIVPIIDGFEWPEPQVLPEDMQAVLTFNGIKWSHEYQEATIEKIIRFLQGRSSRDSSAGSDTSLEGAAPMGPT
Experiment: inhibition of SAM-TIR NAD hydrolysis to ADPR – cell lysate, HPLC readout, primary screen (AID 1508615);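 also: substrate NAD at 5 µM with 60 min at 37 °C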
Conditions: HEK293T SAM-TIR lysate, NAD/ADPR ratio by HPLC; at 5 µM; active compounds read high
Among all 1,600 compounds or so, about 20 (1%) were called active. This is one part of a sample in which actives are shown more often than they occur.

Look over these answered cases.
Cc1ccc(C(C)C)cc1NC(=O)Nc1ccc([N+](=O)[O-])cc1    3 (inactive)
Cn1cnc([N+](=O)[O-])c1Sc1ncn[nH]1    3 (inactive)
Nc1ccnn1-c1ccccc1    3 (inactive)
CN(C)CC1C2CCC(C2)C1O (centres undefined)    3 (inactive)
CC(C)(NC(=O)c1cc(Cl)c2ccccc2c1O)C(=O)O    3 (inactive)

Provide the documented NAD/ADPR ratio with NAD(+) hydrolase SARM1 (Homo sapiens) (UniProt Q6SZW1) as the system for `CC(=O)Nc1ccc(Cc2nc3c([nH]2)c(=O)n(C)c(=O)n3C)cc1`
3 (inactive)

Provide the documented NAD/ADPR ratio with NAD(+) hydrolase SARM1 (Homo sapiens) (UniProt Q6SZW1) as the system for C#CCOCC1CN(c2ccccc2)C(=O)O1 (centres undefined)
3 (inactive)

Provide the documented NAD/ADPR ratio with NAD(+) hydrolase SARM1 (Homo sapiens) (UniProt Q6SZW1) as the system for O=C1C=C(c2ccccc2)OC(=O)C1C(=O)c1ccccc1 (centres undefined)
3 (inactive)
